From: patent US11279687B2

target: NAMPT (Homo sapiens (Human), UniProt P43490); test: NAMPT biochemical inhibition assay (NMN quantified by mass spectrometry); conditions: NAMPT biochemical inhibition; read-out: Biochem IC50
Sequence (P43490 whole entry): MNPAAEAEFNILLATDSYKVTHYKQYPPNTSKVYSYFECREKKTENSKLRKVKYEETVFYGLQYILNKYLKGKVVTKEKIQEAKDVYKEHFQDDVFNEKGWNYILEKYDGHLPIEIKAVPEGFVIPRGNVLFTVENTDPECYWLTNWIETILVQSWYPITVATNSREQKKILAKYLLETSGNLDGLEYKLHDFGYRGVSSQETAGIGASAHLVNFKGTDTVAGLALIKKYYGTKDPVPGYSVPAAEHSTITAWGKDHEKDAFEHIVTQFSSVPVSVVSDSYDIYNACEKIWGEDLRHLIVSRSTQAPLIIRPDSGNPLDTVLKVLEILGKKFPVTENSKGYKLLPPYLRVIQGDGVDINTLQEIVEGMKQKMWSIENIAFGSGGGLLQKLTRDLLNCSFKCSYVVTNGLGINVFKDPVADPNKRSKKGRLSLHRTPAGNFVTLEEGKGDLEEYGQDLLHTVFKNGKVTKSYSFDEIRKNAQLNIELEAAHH
Assign IC50 to each entry below.
Please give a number only; it is taken to be in nM.

Request: Recall the recorded IC50 for CC(C)c1ccc(S(=O)(=O)c2ccc(NC(=O)NCc3cccnc3)cc2)c(Cl)n1 with NAMPT (Homo sapiens (Human), UniProt P43490) and state it.
Result: 3

Request: Please answer likewise for COc1cc(F)cc(S(=O)(=O)c2ccc(NC(=O)NCc3cccnc3)cc2)c1
Result: 1.7

Request: Please answer likewise for Cc1ccc(Cl)c(NS(=O)(=O)c2ccc(NC(=O)NCc3cccnc3)cc2)c1
Result: 0.3

Request: Please answer likewise for COCCC1CCCN(S(=O)(=O)c2ccc(NC(=O)NCc3cccnc3)cc2)C1 (stereo not drawn)
Result: 4

Request: Please answer likewise for CS(=O)(=O)N(c1cccc(N)c1)S(=O)(=O)c1ccc(NC(=O)NCc2cccnc2)cc1
Result: 3

Request: Please answer likewise for O=C(NCc1cccnc1)Nc1ccc(S(=O)(=O)Nc2ccccc2N2CCOCC2)cc1
Result: 5

Request: Please answer likewise for Cc1cc(C(F)(F)F)ccc1S(=O)(=O)c1ccc(NC(=O)NCc2cccnc2)cc1
Result: 11.8

Request: Please answer likewise for O=C(NCc1cccnc1)Nc1ccc(S(=O)(=O)N2CCC(N3CCCCCC3)CC2)cc1
Result: 5

Request: Please answer likewise for CC(C)COc1cc(F)cc(S(=O)(=O)c2ccc(NC(=O)NCc3cccnc3)cc2)c1
Result: 4

* * *

biological target: NAMPT (Homo sapiens (Human), UniProt P43490); assay: NAMPT biochemical inhibition assay (NMN quantified by mass spectrometry); details: NAMPT biochemical inhibition; read-out: Biochem IC50
Assign IC50 to each entry below.
Please give a number only; it is taken to be in nM.

Request: Look at this compound and give its reported IC50. Cc1ccc(S(=O)(=O)c2ccc(NC(=O)NCc3cccnc3)cc2)c(F)c1
Result: 2

Request: Please answer likewise for CN(C)c1ccc(S(=O)(=O)c2ccc(NC(=O)NCc3cccnc3)cc2)cn1
Result: 3

Request: Please answer likewise for Cc1cccc(C)c1S(=O)(=O)c1ccc(NC(=O)NCc2cccnc2)cc1
Result: 8

Request: Please answer likewise for O=C(NCc1cccnc1)Nc1ccc(S(=O)(=O)c2ccc(N3CCOCC3)cc2)cc1
Result: 1.8

Request: Please answer likewise for O=C(NCc1cccnc1)Nc1ccc(S(=O)(=O)Nc2ccccc2OC(F)(F)F)cc1
Result: 1.2

Request: Please answer likewise for CC(C)c1ccc(CN2CCN(S(=O)(=O)c3ccc(NC(=O)NCc4cccnc4)cc3)CC2)cc1
Result: 35.8

Request: Please answer likewise for O=C(NCc1cccnc1)Nc1ccc(S(=O)(=O)c2cccc3c2Oc2ccccc2S3)cc1
Result: 2.9

Request: Please answer likewise for CN(C)C(=O)c1ccccc1NS(=O)(=O)c1ccc(NC(=O)NCc2cccnc2)cc1
Result: 16

Request: Please answer likewise for COc1ccc(Cl)cc1N1CCN(S(=O)(=O)c2ccc(NC(=O)NCc3cccnc3)cc2)CC1
Result: 2

* * *

Assign pIC50 to each entry below.
target: UniProtKB P43490; test: NAMPT biochemical inhibition assay (NMN quantified by mass spectrometry); settings: NAMPT biochemical inhibition; read-out: Biochem IC50
Please express pIC50 as -log10 of the molar concentration.

Request: Look at this molecule and give its reported pIC50. O=C(NCc1ccc2nccn2c1)Nc1ccc(S(=O)(=O)c2ccc(F)cc2)cc1
Result: 8.52

Request: Please answer likewise for COc1ccccc1CNS(=O)(=O)c1ccc(NC(=O)NCc2cccnc2)cc1
Result: 8.10

Request: Please answer likewise for O=C(NCc1cccnc1)Nc1ccc(S(=O)(=O)c2cccc(OC(F)(F)F)c2)cc1
Result: 9.00

Request: Please answer likewise for O=C(NCc1cccnc1)Nc1ccc(S(=O)(=O)N2CC(F)(F)C2)cc1
Result: 7.23

Request: Please answer likewise for O=C(NCc1cccnc1)Nc1ccc(S(=O)(=O)N2CCc3ccccc32)cc1
Result: 8.70

Request: Please answer likewise for CCN(CC)C(=O)[C@H]1CCCN(S(=O)(=O)c2ccc(NC(=O)NCc3cccnc3)cc2)C1
Result: 8.22

Request: Please answer likewise for Cc1cc(Cl)cc(S(=O)(=O)c2ccc(NC(=O)NCc3cccnc3)cc2)c1
Result: 8.74

Request: Please answer likewise for O=C(NCc1cccnc1)Nc1ccc(S(=O)(=O)c2cccc(F)c2F)cc1
Result: 8.40

Request: Please answer likewise for Cc1cc(-n2cccn2)ccc1S(=O)(=O)c1ccc(NC(=O)NCc2cccnc2)cc1
Result: 8.70

Request: Please answer likewise for O=C(NCc1ccc2nccn2c1)c1ccc(S(=O)(=O)c2cc(F)cc(F)c2)cc1
Result: 7.75

Request: Please answer likewise for CC(C)(C)OC(=O)Nc1ccc(CNC(=O)Nc2ccc(S(=O)(=O)N3CCCCC3)cc2)cn1
Result: 5.50

Request: Please answer likewise for O=C(NCc1cccnc1)Nc1ccc(S(=O)(=O)Nc2cccc(Cl)c2)cc1
Result: 9.00

Request: Please answer likewise for CN(Cc1ccc(F)cc1)S(=O)(=O)c1ccc(NC(=O)NCc2cccnc2)cc1
Result: 8.52

Request: Please answer likewise for CC(=O)c1ccc(NS(=O)(=O)c2ccc(NC(=O)NCc3cccnc3)cc2)cc1
Result: 7.84

Request: Please answer likewise for Cc1ccc(NS(=O)(=O)c2ccc(NC(=O)NCc3cccnc3)cc2)cc1C
Result: 8.52

Request: Please answer likewise for COc1cc(S(=O)(=O)c2ccc(NC(=O)NCc3cccnc3)cc2)ccc1Cl
Result: 8.36

Request: Please answer likewise for COc1ccc2cc(S(=O)(=O)c3ccc(NC(=O)NCc4cccnc4)cc3)ccc2c1
Result: 8.80

Request: Please answer likewise for COc1ccc(S(=O)(=O)c2ccc(NC(=O)NCc3cccnc3)cc2)c(F)c1
Result: 8.52

Request: Please answer likewise for CC(C)c1ccc(S(=O)(=O)c2ccc(NC(=O)NCc3cccnc3)cc2)cc1
Result: 8.52

Request: Please answer likewise for CC1CCN(S(=O)(=O)c2ccc(NC(=O)NCc3cccnc3)cc2)CC(C)(C)C1 (centres unmarked)
Result: 8.70
